# Tgt: human androgen receptor (AR) (Homo sapiens, UniProt P10275)
# Construct: expressed in transfected cells; host or cells: mouse myoblast C2C12 cells, transiently co-transfected
# Sequence (P10275 1-920): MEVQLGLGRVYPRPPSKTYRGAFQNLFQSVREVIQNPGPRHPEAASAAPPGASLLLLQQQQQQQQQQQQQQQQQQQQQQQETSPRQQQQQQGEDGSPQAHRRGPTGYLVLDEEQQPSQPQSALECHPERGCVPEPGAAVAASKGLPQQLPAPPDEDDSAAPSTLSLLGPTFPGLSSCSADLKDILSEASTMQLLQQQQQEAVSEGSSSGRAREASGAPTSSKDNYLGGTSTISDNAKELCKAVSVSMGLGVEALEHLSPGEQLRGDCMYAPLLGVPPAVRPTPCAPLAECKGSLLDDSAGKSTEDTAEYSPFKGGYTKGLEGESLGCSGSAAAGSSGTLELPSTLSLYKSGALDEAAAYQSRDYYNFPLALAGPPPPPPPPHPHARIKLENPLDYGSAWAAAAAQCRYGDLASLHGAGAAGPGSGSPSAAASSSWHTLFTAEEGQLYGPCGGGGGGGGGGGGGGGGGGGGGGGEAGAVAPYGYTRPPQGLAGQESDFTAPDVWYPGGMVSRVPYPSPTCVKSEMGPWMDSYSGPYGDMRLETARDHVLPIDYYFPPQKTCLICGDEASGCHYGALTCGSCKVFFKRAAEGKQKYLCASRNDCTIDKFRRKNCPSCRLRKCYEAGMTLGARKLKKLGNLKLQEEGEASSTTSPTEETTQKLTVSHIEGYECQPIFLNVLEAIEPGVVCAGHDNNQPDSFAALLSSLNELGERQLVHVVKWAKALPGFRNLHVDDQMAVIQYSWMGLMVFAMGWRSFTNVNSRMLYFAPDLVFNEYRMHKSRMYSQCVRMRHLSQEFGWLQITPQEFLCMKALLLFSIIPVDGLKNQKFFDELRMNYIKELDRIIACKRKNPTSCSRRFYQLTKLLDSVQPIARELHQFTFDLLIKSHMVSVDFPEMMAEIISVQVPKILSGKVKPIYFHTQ
# Protocol Description: C2C12 AR/ARE reporter assay
# Assay type: cell-based
// returns FALSE unless EC50 is strictly below 60 nM, in which case TRUE

1) CC(C)C(=O)NC1CCc2c(c3cc(Cl)ccc3n2Cc2ccc(Cl)cc2)C1 (stereo not drawn); FALSE
2) CC(C)C(=O)N[C@H]1CCc2c(c3cc(C#N)ccc3n2Cc2cccc(F)c2)C1; FALSE
3) Cc1ncc(-c2ccc3c(c2)c2c(n3Cc3cccc(F)c3)CCC(NC(=O)C(C)C)C2)cn1 (stereo not drawn); TRUE
4) CC(C)C(=O)NC1CCc2c(c3cc(Cl)ccc3n2Cc2cccc(Cl)c2)C1 (stereo not drawn); FALSE
5) CC(C)C(=O)NC1CCc2c(c3cccc(Cl)c3n2Cc2cccc(F)c2)C1 (stereo not drawn); FALSE
6) CC(C)C(=O)NC1CCc2c(c3cc(Cl)ccc3n2Cc2ccccc2F)C1 (stereo not drawn); FALSE
7) CC(C)C(=O)NC1CCc2c(c3cc(Br)cc(F)c3n2Cc2cccc(F)c2)C1 (stereo not drawn); TRUE
8) Cc1cc(-c2ccc3c(c2)c2c(n3Cc3cccc(F)c3)CC[C@@H](NC(=O)C3CC3)C2)no1; TRUE
9) CC(C)C(=O)N[C@@H]1CCc2c(c3cc(C#N)ccc3n2Cc2cccc(F)c2)C1 (single isomer, unassigned); TRUE
10) Cc1ccc2c(c1)c1c(n2Cc2cccc(C#N)c2)CCC(NC(=O)C(C)C)C1 (stereo not drawn); FALSE
11) COc1ccc2c(c1)c1c(n2Cc2ccncc2)CCC(NC(=O)C(C)C)C1 (stereo not drawn); FALSE
12) CC(C)C(=O)NC1CCc2c(c3cc(F)ccc3n2Cc2cccc(F)c2)C1 (stereo not drawn); TRUE
13) CN(C)C(=O)NC1CCc2c(c3cc(Br)ccc3n2Cc2cccc(F)c2)C1 (stereo not drawn); TRUE
14) COc1ccc2c(c1)c1c(n2Cc2ccccc2Cl)CCC(NC(=O)C(C)C)C1 (stereo not drawn); FALSE
15) CN(C)S(=O)(=O)NC1CCc2c(c3cc(C#N)ccc3n2Cc2cccc(F)c2)C1 (stereo not drawn); TRUE
